SYSTEM UNDER TEST: Bile acid receptor (Homo sapiens)
ASSAY SUMMARY: qHTS assay to identify small molecule agonists of the farnesoid-X-receptor (FXR) signaling pathway (AID 743220); note: % is set by controls: 0 for no effect and ±100 for the full control effect
MEASUREMENT SETUP: HEK293T FXR-UAS-bla, beta-lactamase FRET ratio, 16 h; series mostly up to 62.6 µM
Records with an inconclusive call do not appear. Calls of active or inactive are those of the source. Calls come from the whole dose curve; as a rule, active = well fitted activation curve with a large enough effect in the signal ratio in the repeat runs (not every such curve was filed as active); inconclusive = weak or mixed curves, or effect the other way; inactive = flat fitted curve, though single readings scatter; the % refers to the signal ratio.
REPORTED METRIC: outcome

Some solved cases for reference:
For the molecule CCN1CC(CCN2CCOCC2)C(c2ccccc2)(c2ccccc2)C1=O (stereo not drawn) , give its reported outcome.
inactive

For the molecule `CC(C)NC[C@@H](O)COc1cccc2ccccc12` , report outcome.
inactive

// fetch outcome given entry `NNS(=O)(=O)c1ccc(Oc2ccc(S(=O)(=O)NN)cc2)cc1`
inactive

Kindly indicate its recorded outcome. Item: `Cc1ccc([N+](=O)[O-])cc1Cl`
inactive

Supply reported outcome belonging to this molecule: `CC(C)O`
inactive

Answer with reported outcome of `CCNCCO`
inactive

Further cases:
Give a short answer stating reported outcome for `N#CSCC(=O)O` .
inactive

Look up outcome of `CC1=C2[C@H](/C=C(\C)C(=O)O)CC[C@@H](C)[C@H]2CC1` and report it.
inactive

Identify measured outcome corresponding to `Oc1ccccc1F`
inactive

# return recorded outcome for entry `C1CCOC1`
inactive

State its outcome for this molecule: CN(CC1(C)CCCO1)S(=O)(=O)c1ccc(Cl)c(S(N)(=O)=O)c1 (stereo not drawn)
inactive

Please report outcome for the following molecule: `Cc1cc2nc(N)sc2cc1C`
inactive

Answer with reported outcome of CCCS(=O)c1ccc2nc(NC(=O)OC)[nH]c2c1 (stereo not drawn)
inactive

Look up outcome of CC(=O)OC1C2(C)CCC(C2)C1(C)C (stereo not drawn) and report it.
inactive

----------
SYSTEM UNDER TEST: Nuclear receptor subfamily 1 group I member 2 (Homo sapiens) (UniProt O75469)
Sequence (O75469 whole entry, looked up): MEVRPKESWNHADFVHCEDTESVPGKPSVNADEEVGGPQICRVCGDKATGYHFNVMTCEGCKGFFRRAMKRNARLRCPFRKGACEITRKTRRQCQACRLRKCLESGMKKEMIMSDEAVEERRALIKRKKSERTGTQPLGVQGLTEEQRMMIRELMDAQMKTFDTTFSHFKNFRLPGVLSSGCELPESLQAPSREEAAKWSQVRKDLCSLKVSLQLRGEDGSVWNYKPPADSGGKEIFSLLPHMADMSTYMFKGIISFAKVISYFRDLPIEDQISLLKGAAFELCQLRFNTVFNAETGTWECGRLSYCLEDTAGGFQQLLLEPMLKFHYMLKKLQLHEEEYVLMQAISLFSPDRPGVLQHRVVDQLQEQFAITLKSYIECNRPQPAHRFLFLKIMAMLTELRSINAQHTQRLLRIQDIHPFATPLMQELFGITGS
ASSAY SUMMARY: Human pregnane X receptor (PXR) small molecule agonists, qHTS assay (AID 1346982); note: nearly all actives have a fitted effect of over 35% in size; for activation: % is set by controls: 0 for no effect and ±100 for the full control effect
MEASUREMENT SETUP: PXR-Luc HepG2, CYP3A4 luciferase reporter, 24 h; series mostly up to 92.4 µM
Results filed as inconclusive are left out. The source made the active and inactive calls. Calls follow the shape of the dose curve; as a rule, active = well fitted activation curve with a large enough effect in the repeat runs; inconclusive = weak or mixed curves; inactive = no such curve, though single readings can be large or run the other way.
Your response should consist of one outcome taken from active, inactive

Name the outcome recorded for `COC(=O)c1ccc(OC)cc1` in the assay.
inactive

# outcome recorded in this test, key = `C=Cc1ccccc1`
inactive

What was the test verdict on `ICCc1ccccc1` ?
active

Which outcome was entered for the molecule `CC(C)CCCCCCc1ccc(OCCOCCO)cc1` in this test?
active

What is the recorded call for this molecule in the test? `CN(CCCN1c2ccccc2CCc2ccccc21)CC(=O)c1ccc(Cl)cc1`
active

Assay result, entry `Nc1ccc2ccccc2c1S(=O)(=O)O` — outcome?
active

What did the test return for `OC[C@H]1O[C@@H](O[C@H]2[C@H](O)[C@@H](O)[C@H](O)O[C@@H]2CO)[C@H](O)[C@@H](O)[C@H]1O` ?
inactive

In this assay, the call recorded for `CCCCCCCCCC/C=C/C#N` was what?
inactive

Assay outcome for `O=Cc1ccc(F)c(Br)c1` : what was it?
inactive

Which outcome was entered for the molecule `C/C(=N\O)[C@@H](C)NCC(C)(C)CN[C@H](C)/C(C)=N/O` in this test?
inactive

Recorded test call requested for `COc1ccc2nc(NC(=O)Nc3ccccc3)sc2c1`
active

Which outcome did this test record for the molecule `CCN(CC)CCOc1ccc(Cc2ccccc2)cc1` ?
active

GET /call?item= `C=CCc1cc(OC)c(O)c(C(=O)NCCO)c1` returns the recorded outcome of this test.
inactive

----------
ASSAY SUMMARY: qHTS assay to identify small molecule antagonists of the sonic hedgehog signaling (Shh) pathway - cell viability counter screen (AID 1259367); note: nearly all actives have a fitted effect of over 55% in size
MEASUREMENT SETUP: NIH/3T3 Gli1-Luc viability, CellTiter-Fluor, 24 h; series mostly up to 92.4 µM
Inconclusive results are not listed. The source made the active and inactive calls. Calls come from the whole dose curve; as a rule, active = well fitted cell-killing curve with a large enough effect in the repeat runs; inconclusive = weak or mixed curves, or effect the other way; inactive = no such curve, though single readings can be large or run the other way.
Mark one answer only. Choices: yes (1) for active, no (0) for inactive

Per the records of this test, what outcome belongs to `C=CCCCCCCCCO` ?
no (0)

How was `CC(=O)OC(C)OC(C)=O` classified in this test?
no (0)

Which outcome was entered for the molecule CCCS(=O)c1ccc2nc(NC(=O)OC)[nH]c2c1 (stereo not drawn) in this test?
no (0)

// outcome(item) with item = `CC[C@H]1CC[C@H](NCc2cc3c(cc2OC)[C@H]2C[C@H]2C(=O)N3C)[C@H](c2ccccc2)N1`
yes (1)

Tell me the assay call for `OCCN(CCO)c1ccccc1` please.
no (0)

Recorded call for `CCCCNC(=S)NCCCC` ?
no (0)

# outcome recorded in this test, key = `Cc1nc(-c2ccccn2)ncc1C(=O)Nn1cc(C)c2cc(F)ccc21`
no (0)

Status in this test for `O=C1CCN(c2ccccc2)N1` ?
no (0)

Give the logged outcome of this assay for the following molecule: `O=C(O)[C@@H](O)[C@H](O)[C@H](O)[C@@H](O)C(=O)O`
no (0)

Answer briefly: the call reported for COC(=O)C(C)O (stereo not drawn) in this assay.
no (0)

Give the logged outcome of this assay for the following molecule: `CCOC(=O)NCCC[Si](OCC)(OCC)OCC`
no (0)

Kindly provide the recorded test outcome for the following molecule: `FC(F)(F)c1ccccc1`
no (0)

Field: outcome | Entry: `CCCCCCCCCCCCCCCCOP(=O)([O-])OCC[N+](C)(C)C`
no (0)

Assay result, entry `C=Cc1ccccc1` — outcome?
no (0)

In this assay, the call recorded for `Oc1ccccc1C=NCc1ccccc1` was what?
no (0)

Record request — test call for CC(CNC1CCCCC1)OC(=O)c1ccccc1 (stereo not drawn)
no (0)

Recorded test call requested for `CCCCCCCCCC#N`
yes (1)

Outcome? `Cc1c(N)cccc1N`
no (0)

Hi, sorry to bother you, what did the test record for `CCCCC(=O)O[C@]1(C(=O)CO)[C@H](C)C[C@H]2[C@@H]3CCC4=CC(=O)C=C[C@]4(C)[C@@]3(F)[C@@H](O)C[C@@]21C` ?
no (0)

What classification did `O=Cc1ccc(F)c(Br)c1` end up with in this test?
no (0)

Fill in: this test's call for `COc1ccc(Nc2ccc(OC)cc2)cc1` is ___
no (0)

Returns: the outcome recorded for `CC(=O)Oc1cc(C(C)C)c(OCCN(C)C)cc1C` in this assay.
no (0)

Recorded test outcome, item `OCC(CBr)(CBr)CBr`
no (0)

What is the recorded call for this molecule in the test? `O=c1[nH]c(=O)n([C@H]2C[C@H](O)[C@@H](CO)O2)cc1C(F)(F)F`
no (0)

Called result for CCCCC(CC)COC(=O)COc1cc(Cl)c(Cl)cc1Cl (stereo not drawn)
no (0)

Tell me the assay call for NC1=NCC2c3ccccc3Cc3ccccc3N12 (stereo not drawn) please.
no (0)

Which outcome did this test record for the molecule `Cc1c[nH]c(=S)[nH]c1=O` ?
no (0)

# fetch the recorded call for CC(Oc1c(Cl)cccc1Cl)C1=NCCN1 (stereo not drawn) here
no (0)

----------
SYSTEM UNDER TEST: Progesterone receptor (Homo sapiens)
ASSAY SUMMARY: qHTS assay to identify small molecule antagonists of the progesterone receptor (PR) signaling pathway (AID 1346795); note: % is set by controls: 0 for no effect and ±100 for the full control effect
MEASUREMENT SETUP: PR-UAS-bla HEK293T, beta-lactamase FRET ratio, 16 h; series mostly up to 92.4 µM
Records with an inconclusive call do not appear. Calls of active or inactive are those of the source. The call rests on the fitted dose curve; in most records, active means well fitted inhibition curve with a large enough effect in the signal ratio in the repeat runs (not every such curve was filed as active); inconclusive means weak or mixed curves; inactive means flat fitted curve, though single readings scatter; the % refers to the signal ratio.
REPORTED METRIC: Potency

Tell me its Potency given `Cn1cnc2c(F)c(Nc3ccc(Br)cc3Cl)c(C(=O)NOCCO)cc21` as the entry.
inactive

Input `NCCCN1CCN(CCCN)CC1` , output reported Potency.
inactive

In one line, give reported Potency of the entry `CO[C@@]1(NC(=O)CSCC#N)C(=O)N2C(C(=O)O)=C(CSc3nnnn3C)CS[C@@H]21` .
inactive

Give reported Potency value for `NCCC(O)(P(=O)(O)O)P(=O)(O)O`
inactive

Name the recorded Potency of the item `Oc1ccccc1C=NCc1ccccc1` in your answer.
inactive

Next item in the queue.
Identify measured Potency associated with O=C1CCCCC1C1CCCCC1 (stereo not drawn)
inactive

----------
SYSTEM UNDER TEST: Glucocorticoid receptor (Homo sapiens) (UniProt P04150)
Sequence (P04150 whole entry, looked up): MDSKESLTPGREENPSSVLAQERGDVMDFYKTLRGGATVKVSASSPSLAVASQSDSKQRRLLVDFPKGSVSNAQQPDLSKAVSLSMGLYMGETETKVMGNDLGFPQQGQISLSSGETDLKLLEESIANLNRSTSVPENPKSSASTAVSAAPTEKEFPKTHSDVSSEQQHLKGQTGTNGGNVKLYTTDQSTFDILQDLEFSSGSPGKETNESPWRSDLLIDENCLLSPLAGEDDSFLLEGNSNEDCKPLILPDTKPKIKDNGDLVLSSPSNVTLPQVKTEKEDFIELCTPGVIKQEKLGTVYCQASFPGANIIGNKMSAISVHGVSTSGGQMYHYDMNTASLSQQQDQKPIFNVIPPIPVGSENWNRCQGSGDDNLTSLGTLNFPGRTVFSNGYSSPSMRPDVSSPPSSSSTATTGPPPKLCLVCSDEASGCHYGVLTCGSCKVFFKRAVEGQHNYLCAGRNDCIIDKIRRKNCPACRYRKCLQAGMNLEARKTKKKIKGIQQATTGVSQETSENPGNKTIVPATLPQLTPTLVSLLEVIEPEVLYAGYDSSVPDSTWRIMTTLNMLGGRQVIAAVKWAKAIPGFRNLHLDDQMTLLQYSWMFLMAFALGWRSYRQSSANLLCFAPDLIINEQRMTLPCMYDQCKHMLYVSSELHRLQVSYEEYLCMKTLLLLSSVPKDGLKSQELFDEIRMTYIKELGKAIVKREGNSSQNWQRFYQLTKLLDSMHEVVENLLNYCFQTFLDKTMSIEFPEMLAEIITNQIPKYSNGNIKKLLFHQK
ASSAY SUMMARY: qHTS assay to identify small molecule agonists of the glucocorticoid receptor (GR) signaling pathway (AID 720691); note: % is set by controls: 0 for no effect and ±100 for the full control effect
MEASUREMENT SETUP: GR-bla HeLa, beta-lactamase reporter ratio, 18 h; series mostly up to 62.4 µM
Inconclusive results are not listed. The source made the active and inactive calls. The call rests on the fitted dose curve; in most records, active means well fitted activation curve with a large enough effect in the signal ratio in the repeat runs (not every such curve was filed as active); inconclusive means weak or mixed curves, or effect the other way; inactive means no such curve, though single readings can be large or run the other way; the % refers to the signal ratio.
REPORTED METRIC: outcome

Example entries and their recorded answers appear below.
Specify measured outcome for `CC(=O)Oc1cc(C(C)C)c(OCCN(C)C)cc1C` .
inactive

Using known records, supply outcome for `O=C1Nc2ccc([N+](=O)[O-])cc2C1=O`
inactive

Answer with the recorded outcome of `CCN(CC)CCNC(=O)COc1ccc(Cl)cc1` only.
inactive

Report outcome for `Cc1cccc(C)c1NC(=O)CN1CCCCCC1`
inactive

Please give measured outcome of the following entry: `Cc1cc2c(s1)Nc1ccccc1N=C2N1CCN(C)CC1`
inactive

Others:
Specify outcome for `CCN(CC)C(=O)N(CC)CC` and stop.
inactive

Using the record for `Cc1ccc(C(C)C)cc1O` , state its measured outcome.
inactive
